system: TRPC4 (mouse), co-expressed with 5HT1a in HEK293; experiment: enhancement of serotonin-evoked TRPC4 response – cell-based, second counter screen, HEK293 TRPC4/5HT1a, Fluo-4, counter-screen for TRPC4 potentiator project, confirmation (AID 434979); settings: Fluo-4 calcium flux, at 10 µM, serotonin added at its EC20 dose
Calls of active or inactive are those of the source.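 How the source made its calls: active means signal rise over 3 SD above mean of control wells given weak agonist, in both repeats and first screen; inactive means the rest.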
API: response.call in TRUE for active, FALSE for inactive

q: Would you mind telling me which call this test gave CCOc1ccccc1C(=O)NCCc1cnc[nH]1 ?
a: TRUE

q: Further, for Cc1nn(C(=O)c2cccc([N+](=O)[O-])c2)c(C)c1Sc1ccccc1 ?
a: FALSE

q: Further, for CN(C(=O)CSc1nc(-c2ccc(C(C)(C)C)cc2)c(C#N)c(=O)[nH]1)C1CCCCC1 ?
a: FALSE

q: Further, for N=c1sccn1CC(=O)Nc1ccccc1Oc1ccccc1 ?
a: FALSE

q: Further, for OCC1(CC2CCCCO2)CCN(Cc2ccccc2-c2ccco2)CC1 (stereo unspecified) ?
a: FALSE

q: Further, for COc1cccc(C(=O)C2CCCN(Cc3cccn3-c3ccccn3)C2)c1 (stereo unspecified) ?
a: FALSE

----------
test: serotonin-gated TRPC4 signal block – cell-based, second counter screen, HEK293 TRPC4/5HT1a, Fluo-4, counter-screen for TRPC4 inhibitor project, confirmation (AID 434978); details: Fluo-4 calcium flux, at 10 µM, serotonin added to trigger calcium flux
Activity calls are given as the source filed them.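 How the source made its calls: active means primary screen active whose calcium signal fell more than 3 SD beyond the full-serotonin control mean in both duplicate plates; inactive means the rest.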
API: response.call in active, inactive

For orientation, consider the following solved cases.
Fc1ccc2c(c1)C(c1ccncc1)=NNC(c1ccc(Cl)cc1)=N2: inactive
Cc1ccc(C(C)C)cc1OCCCCN1CCCC1: inactive
CCC1CCCCN1Cc1nc2c(c(=O)n(C)c(=O)n2C)n1Cc1ccccc1 (stereo not given): active
COC(=O)c1ccccc1N=Nc1c(C)[nH][nH]c1=O: inactive

q: Would you mind telling me which call this test gave COc1cc(/C=C2\C(=N)N3N=C(S(C)(=O)=O)SC3=NC2=O)ccc1OC(=O)c1cccs1 ?
a: inactive

q: Further, for CCOc1ccc2c(C)nc(NC3=NC(C)(C)C=C(C)N3)nc2c1 ?
a: inactive

----------
molecular target: Short transient receptor potential channel 4 (Mus musculus) (UniProt Q9QUQ5); test: blockers of DAMGO-evoked TRPC4 calcium flux – cell-based, Fluo4, HEK293 TRPC4beta/mu-opioid, confirmation (AID 2636); settings: at 10 µM
Sequence (Q9QUQ5 whole entry, looked up): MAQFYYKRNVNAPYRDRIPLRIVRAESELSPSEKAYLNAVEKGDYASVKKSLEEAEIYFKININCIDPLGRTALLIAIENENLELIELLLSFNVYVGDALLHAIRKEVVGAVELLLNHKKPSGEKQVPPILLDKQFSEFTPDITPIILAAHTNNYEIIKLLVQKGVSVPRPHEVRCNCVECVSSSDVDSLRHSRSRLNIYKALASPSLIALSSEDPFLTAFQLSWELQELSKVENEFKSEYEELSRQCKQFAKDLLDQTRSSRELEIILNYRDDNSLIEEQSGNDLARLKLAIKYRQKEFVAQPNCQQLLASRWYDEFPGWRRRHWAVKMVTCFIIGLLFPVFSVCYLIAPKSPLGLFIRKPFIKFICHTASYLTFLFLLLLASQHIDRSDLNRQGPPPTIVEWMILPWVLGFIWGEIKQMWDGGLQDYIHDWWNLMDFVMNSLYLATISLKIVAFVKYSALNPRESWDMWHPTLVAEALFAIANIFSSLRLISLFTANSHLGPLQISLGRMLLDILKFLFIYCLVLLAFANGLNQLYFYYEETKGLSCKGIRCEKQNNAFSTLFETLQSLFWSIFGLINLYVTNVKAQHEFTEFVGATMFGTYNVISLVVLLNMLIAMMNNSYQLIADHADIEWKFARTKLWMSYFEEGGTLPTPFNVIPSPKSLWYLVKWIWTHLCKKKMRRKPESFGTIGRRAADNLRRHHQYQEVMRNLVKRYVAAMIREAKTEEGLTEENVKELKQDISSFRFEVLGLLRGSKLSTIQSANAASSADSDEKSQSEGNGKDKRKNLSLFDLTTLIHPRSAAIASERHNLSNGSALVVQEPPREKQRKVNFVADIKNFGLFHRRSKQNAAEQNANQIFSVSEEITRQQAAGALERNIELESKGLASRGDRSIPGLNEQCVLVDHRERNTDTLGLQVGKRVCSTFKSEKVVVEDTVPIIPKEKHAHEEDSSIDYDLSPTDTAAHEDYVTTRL
Calls of active or inactive are those of the source.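 How the source made its calls: active means calcium signal cut by more than 3 SD below the full-agonist control yet still positive, in both repeats and the earlier primary screen; inactive means the rest.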
API: response.call in active, inactive

q: Would you mind telling me which call this test gave CCOC(=O)c1c(NC(=O)/C=C/C(=O)O)sc(C)c1-c1ccc(C(C)(C)C)cc1 ?
a: inactive

q: Further, for Fc1ccc(NC(=S)NCCc2ccccn2)cc1 ?
a: inactive

q: Further, for Cc1cccc(CCN(C(=O)c2snc(C(N)=O)c2N)C(C(=O)NCC2CCCO2)c2ccc(F)cc2)c1 (stereo not given) ?
a: active

q: Further, for CCOP(=O)(c1ccccc1)c1nc(-c2ccccc2Cl)oc1N1CCCCC1 (stereo not given) ?
a: inactive

q: Further, for COc1cc(/C=C2/SC(=O)NC2=O)ccc1OCc1ccccc1 ?
a: inactive

----------
assay: nonspecific calcium rise without TRPC4 – cell-based, HEK293 mu-opioid receptor line, counter-screen for TRPC4 activator project, confirmation (AID 449723); conditions: HEK293 mu-opioid cells, Fluo-4 calcium fluorescence, at 10 µM; hits give high values;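 further: counter screen cells carry the mu-opioid receptor alone and lack TRPC4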
Calls of active or inactive are those of the source.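 Rule for the calls: active = hit in primary screen, with calcium signal over 5 SD above buffer well mean in both duplicates; inactive = the rest.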
Attribute Measured: activation

Recorded activation, per entry:
COc1ccc(-c2cc(C(=O)N3CC(C)CC(C)C3)c3ccccc3n2)cc1 (stereo unspecified): inactive
CCc1ccc(OCC(=O)NC2CCCCC2)c(Br)c1: inactive
Cc1cc(Cl)c2oc(C(=O)N(C)Cc3nccn3C)c(C)c2c1: inactive
CCC(=O)N1CCc2cc(Br)cc(S(=O)(=O)NCCCN(CC)Cc3ccccc3)c21: inactive
Cc1ncsc1CCOC(=O)c1cccc([N+](=O)[O-])c1: inactive

Go through the items and report each one's activation.
1. O=C(CN1CCCC1)N1c2ccccc2Sc2ccc(C(F)(F)F)cc21
2. CCCN1CCC(NC(=O)Cc2cccc(C)c2)CC1

a:
1: inactive; 2: inactive

Go through the items and report each one's activation.
1. Cn1c(=O)c2c(nc(CN3CCc4ccccc4C3)n2Cc2ccccc2F)n(C)c1=O
2. Cc1ccc(S(=O)(=O)c2cnc(-c3ccccc3)nc2N2CCN(C)CC2)cc1
3. CNc1nc(SCc2ccccc2Cl)nc2c1CCCC2

a:
["inactive", "inactive", "inactive"]

q: So what's the measured activation for this one? Cc1ccc(NC(=O)CCN2CCC(Cc3ccccc3)CC2)cc1
a: inactive
